Sourced from PubChem BioAssay

target: Fibroblast growth factor 10 (Homo sapiens) (UniProt O15520); test: FGF10 binders on small-molecule microarrays, primary screen, biochemical, small-molecule microarray, 635 nm fluorescence (AID 1102); settings: FGF10 binding, fluorescence 635 nm, higher = more signal
Sequence (O15520 whole entry, looked up): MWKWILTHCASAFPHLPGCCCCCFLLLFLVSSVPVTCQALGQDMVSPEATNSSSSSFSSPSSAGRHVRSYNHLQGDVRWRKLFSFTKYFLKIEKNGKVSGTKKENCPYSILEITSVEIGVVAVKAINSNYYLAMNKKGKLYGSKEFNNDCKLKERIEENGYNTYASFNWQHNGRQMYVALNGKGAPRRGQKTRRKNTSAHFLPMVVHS
Note to self: values exactly at 0.05 are satisfied. So composite z-score at or above 0.05 is satisfied, below is not satisfied.

Request: Quick check, composite z-score >= 0.05? CCOC(=O)[C@H](CC(C)C)NC(=O)CCC1CC(OC(=O)NCc2ccc3c(c2)OCO3)CC2(CCCC(COC(=O)NCC3CCCCC3)O2)O1 (some centres undefined)
Response: satisfied

New cases:
Request: Quick check, composite z-score >= 0.05? "Cn1c(=O)n2n(c1=O)[C@H]1[C@H](O)[C@@H]3O[C@@H]3C(=NOCc3ccccc3)[C@H]1CC2"
Response: not satisfied

Request: Follow-up entry: "O=C1[C@H]2[C@H]3[C@H](O)[C@H](O)CC(=NO[C@@H]4O[C@H](CO)[C@@H](O)[C@H](O)[C@H]4O)[C@H]3CC[C@H]2C(=O)N1c1cccc(Oc2ccccc2)c1"
Response: satisfied
